Hello, the source for this data is patent US8802720B2, in case you need it.

ASSAYED_SYSTEM: human Edg-2 receptor (LPA1 receptor) (Homo sapiens)
Sequence (Q92633 whole entry): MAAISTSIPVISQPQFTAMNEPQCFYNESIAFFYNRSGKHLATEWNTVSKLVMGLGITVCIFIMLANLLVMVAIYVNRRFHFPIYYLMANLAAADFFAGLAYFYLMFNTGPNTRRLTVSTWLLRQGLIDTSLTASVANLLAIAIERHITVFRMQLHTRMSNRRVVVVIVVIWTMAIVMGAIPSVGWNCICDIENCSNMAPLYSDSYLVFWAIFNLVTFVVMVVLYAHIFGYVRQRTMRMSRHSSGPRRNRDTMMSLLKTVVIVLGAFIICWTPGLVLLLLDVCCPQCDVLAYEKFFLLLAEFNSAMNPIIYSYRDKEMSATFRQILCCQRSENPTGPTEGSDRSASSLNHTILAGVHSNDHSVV
TEST_NAME: Edg-2 receptor inhibition by FLIPR calcium fluorescence measurement (LPA-mediated calcium liberation)
SETTINGS: CHO cells stably overexpressing human Edg-2 receptor; LPA 18:1 100 nM; fluo-4 fluorescence; triplicate; read-out: Inhibitory concentrations IC50 for inhibition of the Edg-2 receptor
Reported values of IC50 for individual entries

compound="COc1ccc(C(=O)NC2(C(=O)O)Cc3ccccc3C2)cc1OCCC1=CC[C@H]2C[C@@H]1C2(C)C [Example 81]" test_value="< 0.1 µM"
compound="Cc1cccc(CCOc2cc(C(=O)NC3(C(=O)O)Cc4ccccc4C3)ccc2C(C)F)c1 (centres unmarked) [Example 11]" test_value="< 0.1 µM"
compound="COc1ccc(C(=O)NC2(C(=O)O)Cc3ccccc3C2)cc1OCc1cn(-c2ccccc2)nn1 [Example 79]" test_value="1 to 30 µM"
compound="COc1ccc(C(=O)NC2(C(=O)O)Cc3ccccc3C2)cc1OCCc1ccc(C#N)cc1 [Example 26]" test_value="1 to 30 µM"
compound="COc1ccc(C(=O)NC2(C(=O)O)Cc3ccccc3C2)cc1-c1cccc(-n2cccn2)c1 [Example 334]" test_value="0.1 to 1 µM"
compound="COc1ccc(C(=O)NC2(C(=O)O)Cc3ccccc3C2)cc1OCC(C)C [Example 35]" test_value="1 to 30 µM"

Problem: Entry COc1ncc(C(=O)NC2(C(=O)O)Cc3ccccc3C2)cc1-c1cccc(C)c1 [Example 224] has what IC50?
Result: < 0.1 µM

Problem: Entry CCOC(=O)N1CCN(CCOc2cc(C(=O)NC3(C(=O)O)Cc4ccccc4C3)ccc2OC)CC1 [Example 67] has what IC50?
Result: 1 to 30 µM

Problem: Entry COc1ccc(C(=O)NC2(C(=O)O)Cc3ccccc3C2)cc1OCCc1cccc(Cl)c1F [Example 153] has what IC50?
Result: 0.1 to 1 µM

Problem: Entry Cc1cccc(CCOc2cc(C(=O)NC3(C(=O)O)Cc4ccccc4C3)ccc2OCC2CCC2)c1 [Example 262] has what IC50?
Result: < 0.1 µM

Problem: Entry CCc1ccc(C(=O)NC2(C(=O)O)Cc3ccccc3C2)cc1OCCc1cccc(C)c1 [Example 10] has what IC50?
Result: < 0.1 µM
